Reference source: PubChem BioAssay (NCI)

The reader will find reported TGI values listed item by item below.
- Test system: A549 NSCLC
- experimental.protocol: NCI tumour cell line growth inhibition, 48 h
Where a SMILES comes first, the peptide text is derived from it. [ ]: non-standard residue; d: D form. Ac5c = NC1(C(=O)O)CCCC1

O=C1N[C@@H]2[C@@H](O)[C@@H](O)[C@H](O)C[C@H]2c2cc3c(c(O)c21)OCO3	2.23 µM
CC(C(=O)O)c1ccc(-n2nnc3c(=O)[nH][nH]c(=O)c32)cc1 (stereo not drawn)	> 100 µM
O=C(Nc1ccc2ncccc2c1)c1cc2c(cc1Cl)Sc1nccn1S2(=O)=O	40.6 µM
CC(C)OC(=O)c1cc(NS(=O)(=O)c2ccc3ccccc3c2)cc(C(=O)OC(C)C)c1	93.5 µM

(Q) Item COc1cc2c(cc1OCc1ccccc1)N=CC1C[C@@H](O)CN1C2=O (stereo partly drawn) has what recorded TGI?
(A) > 100 µM

(Q) # iterate: S=C1N=C2C(=N1)n1c3c(c4ccccc41)CCCC23 (stereo not drawn)
(A) > 100 µM

(Q) # iterate: COC(=O)C1(NC(=O)C(C)NC(=O)C(CCCCN)NC(=O)C(CC(C)C)NC(C)=O)CCCC1 (stereo not drawn) (Ac-LKA[Ac5c]-OMe; configuration not given here)
(A) > 100 µM

(Q) # iterate: `CCCCCCCC(=O)SCC/C=C/[C@@H]1CC(=O)NCc2cccc(n2)CN(Cc2ccc3ccccc3c2)CC(=O)N[C@@H](C(C)C)C(=O)O1`
(A) > 100 µM

----------
- System: HCC-2998 colon
- experimental.protocol: NCI tumour cell line growth inhibition, 48 h
recorded.endpoint: TGI

Solved cases (5 shown):
COc1ccc2c(c1)[n+]([O-])c(C#N)c(NC(=O)c1cccs1)[n+]2[O-]	> 100 µM
C=CCOC(=O)C[C@H](NC(=O)[C@H](Cc1ccc(O)cc1)NCC(F)(F)F)C(=O)OCC=C	> 100 µM
CC(C)C[C@H](NC(=O)Cn1ccc(Nc2ccccc2)cc1=O)B(O)O	4.76 µM
COC(=O)C1=CN(CC2=CC(=O)C(C)=CC2=O)C=C(C(=O)OC)C1c1cc(OC)ccc1OC	13.4 µM
NCCc1ccc2oc3cc(=O)c4ccccc4c-3nc2c1	6.78 µM

(Q) Item CCCC(=O)c1c(NOC2OCC(OC(C)=O)C(OC(C)=O)C2OC(C)=O)nc(OC)n(C)c1=O (stereo not given) has what recorded TGI?
(A) > 100 µM

(Q) # iterate: `CC(=O)N(O)CCCCCNC(=O)CCC(=O)N(O)CCCCCNC(=O)CCC(=O)N(O)CCCCCN`
(A) > 100 µM

(Q) # iterate: `O=C(O)CCCNS(=O)(=O)c1ccccc1`
(A) > 100 µM

(Q) # iterate: `O=c1c2ccc(Cl)cc2oc2c(CNc3ccc(S(=O)(=O)Nc4nccs4)cc3)cccc12`
(A) > 100 µM

(Q) # iterate: `CCCNC(=S)N=Nc1c(O)[nH]c2ccccc12`
(A) > 100 µM

----------
The reader will find reported TGI values listed item by item below.
- Test system: DMS 273 small cell lung
- experimental.protocol: NCI tumour cell line growth inhibition, 48 h

(Q) Item CC1CC(=O)C2CC(CO)=CCCC2C1(C)CC/C(=C/CO)CO (stereo unspecified) has what recorded TGI?
(A) > 100 µM
